- Tested on: CCRF-CEM leukemia
- measurement description: NCI tumour cell line growth inhibition, 48 h
List of TGI values.
Number only, in µM; omit the unit.

molecule=Clc1ccc(Cc2nc3ccccc3nc2-c2cccc(Br)c2)cc1 result_units=µM measured_result=5.04
molecule="CC(C)CNCC(O)COc1ccc(C(C)(C)c2ccc(OCC(O)CNCC(C)C)cc2)cc1 (stereo not given)" result_units=µM measured_result=6.18

Data request: Quick one: give measured TGI for CCc1n(Cc2ccc3ccccc3n2)cc[n+]1Cc1ccc2ccccc2n1
Data returned: 15.4

Data request: Quick one: give measured TGI for O=Nc1c(-c2c(O)[nH]c3ccc([N+](=O)[O-])cc23)[nH]c2ccc(O)cc12
Data returned: 12.2

Data request: Quick one: give measured TGI for COc1ccccc1/C=C1\CCC(CCN(C)C)(C2=CCCC2)C1=O (stereo not given)
Data returned: 51.6

###

List of TGI values.
- System: NCI-H226 lung
- measurement description: NCI tumour cell line growth inhibition, 48 h

// below: answered compounds
compound=COC[C@@H](N=CN1CCc2cc(OC)c(OC)cc2[C@@H]1C)C(C)(C)C target_or_test_system="NCI-H226 lung" measured_result="> 100 µM"
compound=Cc1cc(=O)n2nc(SCc3ccccc3)sc2n1 target_or_test_system="NCI-H226 lung" measured_result="> 100 µM"
compound=COc1ccccc1/C=C/[N+](=O)[O-] target_or_test_system="NCI-H226 lung" measured_result="11.7 µM"
compound="COC(=O)C(C(=O)C(=O)Nc1ccc(C(F)(F)F)cc1[N+](=O)[O-])c1csc(-n2nc(-c3ccccc3)cc2-c2ccccc2)n1 (centres undefined)" target_or_test_system="NCI-H226 lung" measured_result="> 100 µM"
compound=CCCC(=O)Nc1cc(C(=O)N2C[C@@H]3C[C@]34C2=CC(=O)c2[nH]cc(C)c24)n(COC)c1 target_or_test_system="NCI-H226 lung" measured_result="42.1 µM"

Data request: Find the measured TGI of O=C(NCc1cccc(C(F)(F)F)c1)c1cc2sccc2nc1C(F)(F)F with NCI-H226 lung as test system.
Data returned: > 100 µM

Data request: Find the measured TGI of O=C(/C(=C\C(=O)c1cccs1)c1ccsc1)c1ccc(Br)cc1 with NCI-H226 lung as test system.
Data returned: > 100 µM

Data request: Find the measured TGI of CC(C)CNCC(O)COc1ccc(C(C)(C)c2ccc(OCC(O)CNCC(C)C)cc2)cc1 (centres undefined) with NCI-H226 lung as test system.
Data returned: 26.2 µM

Data request: Find the measured TGI of CCC(=O)O[C@H]1CC[C@H]2[C@@H]3CC[C@H]4CC(=O)[C@H](C)C[C@]4(C)[C@H]3CC[C@]12C with NCI-H226 lung as test system.
Data returned: > 100 µM

###

List of TGI values.
- System: 786-0 renal
- measurement description: NCI tumour cell line growth inhibition, 48 h

structure_smiles_string=CCn1c(C(=O)N(C2CC2)C2CC2)cc2c3c(ncn3C)c(Nc3cc(C)n(C)n3)nc21 measured_result="> 100 µM"
structure_smiles_string=COc1ccc2c(c1)C(=O)c1c-2n(CCCN=[N+]=[N-])c(=O)c2cc(N(C)C)ccc12 measured_result="> 100 µM"
structure_smiles_string=COc1ccccc1N=C(N)N/N=C/c1c[nH]c2ccccc12 measured_result="26 µM"

# evaluate next
Data request: Quick one: give measured TGI for N=C1N(S(=O)(=O)c2ccccc2)[C@@H](Cc2ccccc2)[C@H](c2ccccc2)C1(c1ccccc1)c1ccccc1
Data returned: > 100 µM
